Attribution: ChEMBL document CHEMBL4270604

# SYSTEM_TESTED: UniProt:P11712
# Sequence (P11712 whole entry): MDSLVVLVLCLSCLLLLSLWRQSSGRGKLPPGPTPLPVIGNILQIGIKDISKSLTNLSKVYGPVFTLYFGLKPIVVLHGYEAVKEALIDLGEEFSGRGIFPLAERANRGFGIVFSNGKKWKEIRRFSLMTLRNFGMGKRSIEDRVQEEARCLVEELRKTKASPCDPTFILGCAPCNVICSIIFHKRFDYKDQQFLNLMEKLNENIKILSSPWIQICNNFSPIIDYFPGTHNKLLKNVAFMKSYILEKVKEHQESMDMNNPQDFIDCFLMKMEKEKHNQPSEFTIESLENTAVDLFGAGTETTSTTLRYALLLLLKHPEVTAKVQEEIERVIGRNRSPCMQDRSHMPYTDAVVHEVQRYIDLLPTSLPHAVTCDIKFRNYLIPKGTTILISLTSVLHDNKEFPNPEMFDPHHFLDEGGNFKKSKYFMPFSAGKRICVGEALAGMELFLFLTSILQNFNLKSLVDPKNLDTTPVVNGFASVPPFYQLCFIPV
# MEASUREMENT_PROTOCOL: Inhibition of recombinant human CYP2C9 expressed in insect cell microsomes at 1 uM using Luciferin-H as substrate preincubated for 30 mins followed by NADPH addition measured after 30 mins by luminometric method
# Assay type: ADME
# CONDITION_NOTES: probe Luciferin-H
Reported inhibition at 0.5 h, 1 µM is given for each of the following molecules.
RECORDED_METRIC: inhibition at 0.5 h, 1 µM (%)

1. COc1cc(C(=O)NC(=N)Nc2ccc(C)c(NC(=O)c3ccc(CCc4ccccc4)cc3)c2)cc(OC)c1OC.Cl | 68
2. COc1cc(C(=O)NC(=N)Nc2ccc(C)c(NC(=O)c3ccc(-c4ccccc4)cc3)c2)cc(OC)c1OC.Cl | 43
3. COc1cc(C(=O)NC(=S)Nc2ccc(C)c(NC(=O)c3ccc(-c4ccc(F)cc4)cc3)c2)cc(OC)c1OC | 63
4. COc1cc(C(=O)NC(=N)Nc2ccc(C)c(NC(=O)c3ccc(-c4ccc(F)cc4)cc3)c2)cc(OC)c1OC.Cl | 63
